Data credit: patent US20080194616A1

Structures can show the parent of a compound that is named as a salt.
measureName: melting point

> print(dat)
                                   compound      measvalue
1  CC(C)Nc1nc2ccccn2c(=O)c1-c1ccc(N[C@@H]2CCNC2)cc1 (as salt: hydrochloride) [Example 7.10]  229 to 234 °C
2  CCCCc1nc2ccccn2c(=O)c1-c1ccc2[nH]ccc2c1 [Example 1.30]  132 to 135 °C
3  CCCCc1nc2ccccn2c(=O)c1-c1ccc2c(c1)CCN2 (as salt: hydrochloride) [Example 2]  157 to 162 °C

Below: the item to evaluate.
Enquiry: # melting point lookup, item CC(C)c1nc2ccccn2c(=O)c1-c1ccc(NC2CCNC2)cc1 (stereo not shown) (as salt: hydrochloride) [Example 7.5]
Return: 180 to 184 °C
